- System Name: T1, hK1 (human tissue kallikrein 1), recombinant (human, UniProt P06870 25-262)
- T1 construct: Expressed in P. pastoris from KLK1 cDNA and purified; enzymatically active; also called KLK1; Recombinant (Pichia) Kallikrein
- Test Details: SPR
Quantity Name: Kd (nM)
Answer in nM, number only, no unit symbol.

Some binders with known Kd results, for comparison:
M0108-D11 (Fab, V domains shown) VH: EVQLLESGGGLVQPGGSLRLSCAASGFTFSWYVMTWVRQAPGKGLEWVSVIYPSGGATKYADSVKGRFTISRDNSKNTLYLQMNSLRAEDTAVYYCARRGAGGMDVWGQGTTVTVSS VL: AQSVLTQPASVSGSPGQSITISCTGTNTDVGGYNLVSWYQQHPGKAPKLIIYEVSNRPSGVSNRFSGSKSGNTASLTISGLQAEDEVDYYCGSYTSSSTHVFGSGTKVTVLG    2.09
M0139-A04 (Fab, V domains shown) VH: EVQLLESGGGLVQPGGSLRLSCAASGFTFSHYPMTWVRQAPGKGLEWVSSIRPSGGNTGYADSVKGRFTISRDNSKNTLYLQMNSLRAEDTAVYYCARLTGYSSGWFWAYGMDVWGQGTTVTVSS VL: DIQMTQSPGTLSLSPGDRATLSCRASQSVSSSYLAWYQQKAGQAPRLLIYGAASRATGIPDRFSGSGSGTDFTLTISRLEREDFAVYYCQQYGSSPLITFGQGTRLEIKR    12.2

Query binder follows.
For M0099-D05 (Fab, V domains shown) VH: EVQLLESGGGLVQPGGSLRLSCAASGFTFSNYIMSWVRQAPGKGLEWVSSIWPSGGHTRYADSVKGRFTISRDNSKNTLYLQMNSLRAEDTAVYYCARAGSYYAGDYWGQGTLVTVSS VL: DIQMTQSPGTLSLSPGERATLSCRASQTVSSNYLAWYQQKPGLAPRLLIYGVSNRAAGIPDRFSGRGSGTDFTLIINRLEPEDFAVYYCQHYGSSAFTFGRGTKLEIER the binder record lists Kd as 17.5
